Data origin: ChEMBL document CHEMBL3988442

Species: Homo sapiens
Assay: To identify inhibition of the IFN signalling (Jak-Stat) pathway via expression of an eGFP reporter gene under the control of an IFN-stimulated response element (ISRE) containing MxA promoter.
Format: functional
Parameters: scale not given: direction of the effect not stated beside the values
Details: 30 µM
measured_endpoint: Percent Effect

>>> reading("CC(=O)Nc1nc(C(=O)NCc2ccc(N3CCCCCC3)nc2)cs1")
"29.2%"
>>> reading("O=C1CCCc2cc(-c3csc(CCN4CCOC4=O)n3)ccc2N1")
"36.1%"
>>> reading("COc1ccc2cc(C(=O)N3CCCCC3Cn3cccn3)[nH]c2c1 (configuration not stated)")
"2.73%"
>>> reading("Cc1nnc(C(C)N2CCN(Cc3ccc4c(c3)OCO4)CC2)o1 (configuration not stated)")
"13.3%"
>>> reading("CCOc1ccc(N2CCCN=C2NC(=O)c2cccc(Cl)c2)cc1")
"1.55%"
>>> reading("COCCCn1ccnc1-c1cnc(OC)nc1")
"-18.9%"
>>> reading("CC(=O)N1CCN(C(=O)c2cnn(-c3ccccc3Cl)c2)CC1")
"13.8%"
>>> reading("Cc1nc(C)n(CC2CN(c3ccc(C#N)cn3)CCO2)n1 (configuration not stated)")
"-2.74%"
>>> reading("O=C(Cn1cc(I)cn1)Nc1cccnc1")
"4.4%"
>>> reading("CC(C(=O)NCc1ccnc(N(C)C)c1)n1cncn1 (configuration not stated)")
"-1.73%"
>>> reading("Cc1ccc(NC2CCN(C(=O)CN(C)C3CC3)CC2)nn1")
"-12.3%"
>>> reading("COc1ccc(CNC2CCN(CCc3ccncc3)CC2)cc1O")
"-0.697%"

----------
Molecular target: Proteasome subunit beta (Trypanosoma cruzi) (UniProt O96673)
Sequence (O96673 as listed by the source): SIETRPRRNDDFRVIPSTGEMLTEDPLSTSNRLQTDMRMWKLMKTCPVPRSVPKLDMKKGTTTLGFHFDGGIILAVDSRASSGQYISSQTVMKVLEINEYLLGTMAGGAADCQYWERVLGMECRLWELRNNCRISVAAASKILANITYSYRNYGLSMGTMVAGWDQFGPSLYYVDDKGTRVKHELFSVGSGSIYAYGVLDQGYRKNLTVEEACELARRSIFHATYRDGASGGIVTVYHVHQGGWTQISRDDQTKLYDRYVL
Experiment: Trypanosoma cruzi proteasome chymotrypsin-like activity (TcProtChymo) assay. Note: in the data most compounds retested in dose-response had high values.
Type: functional
Parameters: scale not given: direction of the effect not stated beside the values
Settings: 9.37 µM
Please enter yes where Percent Effect is greater than or equal to 10%, and no where it is lower.

>>> classification("CS(=O)(=O)CCN1CCC2(CCCN(C3CCOCC3)C2=O)C1 (stereo not drawn)")
"no"
>>> classification("CS(=O)(=O)N1CCCN(C(=O)c2ccc(Cn3ccccc3=O)o2)CC1")
"no"
>>> classification("CNC(=O)c1ccc(C2CN(C(=O)c3cncs3)CCO2)nc1 (stereo not drawn)")
"yes"
>>> classification("CCn1ncc2c1C(COCC1CC1)CN(C(=O)c1cccs1)C2 (stereo not drawn)")
"yes"
>>> classification("COc1cc(C(=O)N(Cc2cnn(C)c2)C(C)C)ccc1OCC(N)=O")
"yes"
>>> classification("CCNc1cc2c(nn1)CCN(C(=O)c1ccnc(N(C)C)c1)C2")
"no"
>>> classification("COc1ccc2c(c1)CN(Cc1nc3c(cnn3C)c(=O)[nH]1)CC2")
"no"
>>> classification("CCOCC1CN(C(=O)c2cccn2C)Cc2cnn(CC3CC3)c21 (stereo not drawn)")
"no"
>>> classification("CN(C)c1cc(CNC(=O)c2cn(-c3ccc(F)cc3)nn2)ccn1")
"yes"
>>> classification("CC(C)CN1CCC(c2nc3c([nH]2)CC(C)(C)CNC3=O)C1 (stereo not drawn)")
"yes"
>>> classification("CCOCCCC(=O)NCc1cn2cc(Br)ccc2n1")
"yes"
>>> classification("Cc1noc(C)c1C(=O)NCC(c1ccc(F)cc1)N(C)C (stereo not drawn)")
"no"
>>> classification("Cc1ncnc2c1CCN(Cc1cccs1)CC2")
"no"
>>> classification("O=C(CCc1nc2cccnc2[nH]1)NCc1ccc2c(c1)OCO2")
"yes"
>>> classification("O=C(CCc1cc2n(n1)CCCN(C(=O)c1ccccn1)C2)NC1CC1")
"no"
>>> classification("Cc1cc(C(=O)NCC2COCc3c(C)nnn3C2)no1 (stereo not drawn)")
"no"
>>> classification("Fc1cccc(-n2ccc(CN3CCCCC3Cn3cncn3)n2)c1 (stereo not drawn)")
"no"
>>> classification("Cc1ccccc1CSCCn1nc2ccccn2c1=O")
"yes"
>>> classification("COc1ccc(CN2CCC3(CC(=O)N(c4cncnc4)C3)C2)cc1 (stereo not drawn)")
"yes"
>>> classification("CN(C)C(=O)CC1CC2(CCN(C(=O)N(C)C)CC2)Oc2ccccc21 (stereo not drawn)")
"no"
>>> classification("Cc1csc(N2CCN(C(=O)CCn3cncn3)CC2)n1")
"no"
>>> classification("c1cnnc(N2CCCC(NCc3ccc(-n4cccn4)cc3)C2)c1 (stereo not drawn)")
"no"
>>> classification("CCC(NC(=O)C1CCN(S(C)(=O)=O)CC1)c1ccc(OC)c(C)c1 (stereo not drawn)")
"yes"
>>> classification("CN(C)c1cncc(C2CCN(CCO)CC2)n1")
"no"
>>> classification("CCOCc1cccc(S(=O)(=O)N2CCSCC2)c1")
"no"
>>> classification("Cc1cc(F)ccc1CN1CCCC2(C1)OCCO2")
"no"
>>> classification("COc1ccccc1CNC(=O)C1=NN(c2ccc(C)cc2)C(=O)CN1")
"yes"
>>> classification("O=C(CCNC(=O)c1ccoc1)NCc1ccccc1F")
"yes"
>>> classification("O=C(Cc1ccc(F)cc1)NCCNCC1CNc2ccnn2C1 (stereo not drawn)")
"no"
>>> classification("CC(NC(=O)NCCCN(C)S(C)(=O)=O)c1ccncc1 (stereo not drawn)")
"yes"
>>> classification("CC(C)c1nc(C2CCCN(C(=O)Cc3cccnc3)C2)no1 (stereo not drawn)")
"no"
>>> classification("CC(C)NC(=O)c1ccc2c(c1)nc1n2CCN(C(C)C)C1")
"yes"
>>> classification("COc1ncccc1C(=O)N1CC[C@H]2C[C@@H](C)O[C@@H]2C1")
"yes"
>>> classification("O=S(=O)(NCC1CCN(c2ccccn2)CC1)c1ccccc1F")
"yes"
>>> classification("CCCN1CCN(C(=O)C(C)n2cc(Br)cn2)CC1 (stereo not drawn)")
"yes"
>>> classification("CC(C)n1ccnc1C1CCCN(c2ccccn2)C1 (stereo not drawn)")
"yes"
>>> classification("CC(NC(=O)NCCCc1n[nH]c(N)c1C#N)c1ccccc1 (stereo not drawn)")
"yes"
>>> classification("COC(=O)C(C)(C)NC(=O)C1CC(=O)N(C)C1 (stereo not drawn)")
"no"
>>> classification("CO[C@H]1CCN(Cc2cnn(C)c2)[C@@H]2CN(Cc3cccnc3)C[C@H]12")
"no"
>>> classification("Cc1nc(C)n(C2CCCN(C(=O)c3csc(C(C)C)n3)C2)n1 (stereo not drawn)")
"no"
>>> classification("Cc1oc(C(=O)O)cc1S(=O)(=O)Nc1ccc(Cl)c(F)c1")
"no"
>>> classification("O=C(Nc1ccnc(OC2CCOC2)c1)C1CCC1 (stereo not drawn)")
"yes"
>>> classification("CC(C)NC(=O)Cn1cc(-c2ccccc2)cn1")
"yes"
>>> classification("Cc1cc(C(=O)N2CCCC2c2nnc3n2CCCCC3)no1 (stereo not drawn)")
"yes"
>>> classification("CN(Cc1ccc2c(c1)OCO2)Cc1nc2c(cnn2C)c(=O)[nH]1")
"no"
>>> classification("COc1cccc(-n2c(C)cc(C(=O)NS(C)(=O)=O)c2C)c1")
"no"

----------
In this section, each of the molecules is paired with its reported Percent Effect.
Molecular target: Protein translocase subunit SecA (Escherichia coli (strain K12))
Test: Assay to Identify E. coli SecA ATPase Inhibitors
Assay type: functional
Parameters: scale not given: direction of the effect not stated beside the values
Details: 30 µM
Entries with a potency or affinity are not part of this list.
measured_endpoint: Percent Effect (%)

>>> reading("Cc1cc(C(=O)N2C[C@@H]3COC[C@]3(COCc3cccnc3)C2)no1")
-2.45
>>> reading("CS(=O)(=O)N1CCC(C(=O)NC(Cc2ccsc2)c2nccs2)CC1 (stereo not drawn)")
-5.37
>>> reading("Cc1nc(CN2CCCCC2Cn2cncn2)nc2ccccc12 (stereo not drawn)")
-2.07
>>> reading("CN(CCc1ccccc1)c1cnn(CC(=O)N2CCSCC2)c(=O)c1")
-1.2
>>> reading("CCc1nccn1C1CCCN(C(=O)c2ccc3[nH]c(=O)[nH]c3c2)C1 (stereo not drawn)")
-10.8
>>> reading("CCN(CC(=O)NC)S(=O)(=O)N1CCCCCC1")
-5.53
>>> reading("O=C(NCCO)Nc1cccc(Cl)c1SC(F)F")
-7.96
>>> reading("O=C(c1cc(Cl)cc(Cl)c1)N1CCN(c2nccs2)CC1")
-2.62
>>> reading("CC(C)c1ncc(CN2C[C@@H](CN3CCC(CO)CC3)[C@@H](CO)C2)cn1")
-3.44
>>> reading("CCc1noc(C(C)N2CCC(NC(=O)c3ccc(C)s3)CC2)n1 (stereo not drawn)")
-3.18
>>> reading("N#Cc1ccccc1OCCN1CCCCC1Cn1cncn1 (stereo not drawn)")
-2.06
>>> reading("CCNC(=O)N(C)Cc1ccc(SC)c(OC)c1")
-3.35
>>> reading("COCCNS(=O)(=O)c1cccc2c1CN(C(=O)c1ccccc1)CC2")
-6.17
>>> reading("CN1CCCN(C(=O)NCc2csc(Br)c2)CC1")
-5.63
>>> reading("Cc1nn(C)c(N(C)C)c1CNCc1ccccc1Cn1cncn1")
-6.25
>>> reading("COc1ccccc1OCC(=O)Nc1ncccc1OC(F)F")
-3.34
>>> reading("CC(C)(C)c1nc(CN2CCCC2Cn2cccn2)no1 (stereo not drawn)")
-1.54
>>> reading("CCN1CCN(c2ncc(-c3cc(C)no3)c(-c3ccc(C)s3)n2)CC1")
-2.83
>>> reading("Cc1nn(C)c(N(C)C)c1CNCc1cccc(OCCN(C)C)c1")
-0.484
>>> reading("O=C(NCC1CCN(Cc2ccsc2)CC1)NC1CC1")
1.05
>>> reading("CCCN1CCN(C(=O)c2scnc2C)CC1")
-7.16
>>> reading("COc1ccccc1CC(=O)N1CCCC(n2nc(C)cc2C)C1 (stereo not drawn)")
4.86
>>> reading("CN(Cc1nnc(C2CC2)n1C)C1CCN(Cc2ccc(F)cc2)C1 (stereo not drawn)")
-0.349
>>> reading("Cc1cc(N2CCC(N(C)C(=O)Nc3ccccc3)CC2)nc(C)n1")
-4.81
>>> reading("Cn1nc(C(=O)NCc2ccccn2)c2c1CCS(=O)(=O)C2")
-2.26
>>> reading("CN(C)c1cc(CNC(=O)c2ccc(=O)[nH]n2)ccn1")
-2.65
>>> reading("CC(c1nc(C2CC2)no1)N1CCN(CCOCC(F)(F)F)CC1 (stereo not drawn)")
-1.74
>>> reading("O=C(c1ccnnc1)N1C[C@H]2CCC[C@@]2(COCC2CCOCC2)C1")
-1.23
>>> reading("CC(=O)N1CCN([C@@H]2CC[C@@H](NC(=O)c3cncc(C)c3)[C@H]2O)CC1")
-3.3
>>> reading("CN(C)C1CCN(C(=O)c2ccc(Cn3ccccc3=O)o2)CC1")
-2.62
>>> reading("CCO[C@@H]1CC[C@H]2[C@H]1OCCN2C(=O)C1CCOCC1")
-5.85
>>> reading("CCc1noc(CN2CCN(C(=O)N(C)C)CC2)n1")
-5.22
>>> reading("CC(C)N1CCc2c(C#N)c(NCc3ccco3)n3cnnc3c2C1")
-3.81
>>> reading("Cc1cc(=O)[nH]c(CCNC(=O)C(c2ccc(F)cc2)N(C)C)n1 (stereo not drawn)")
6.03
>>> reading("Oc1cc(CCC2CCCCN2)cc(-c2ccncc2)c1 (stereo not drawn)")
-5.49
>>> reading("Clc1ccccc1C1(c2ccnc(CC3CC3)n2)CCNCC1")
-2.96
>>> reading("CC(C)COCC(NC(=O)c1cc[nH]n1)c1ccco1 (stereo not drawn)")
-5.65
>>> reading("Cc1cc(C(=O)NCC2COCc3c(C)nnn3C2)no1 (stereo not drawn)")
-6.44
>>> reading("Cc1csc(C2CCCN(C(=O)c3cnc[nH]3)C2)n1 (stereo not drawn)")
-3.16
>>> reading("CNC(=O)CC1CCN(Cc2nc(-c3ccc(SC)cc3)oc2C)CC1")
-7
>>> reading("CNC(=O)Cc1ccc(NC(=O)NC(C)C(C)C)cc1 (stereo not drawn)")
-2.02
>>> reading("CCOc1ccc(CC(=O)N2CCN(c3nccn3C)CC2)cc1")
-0.699
>>> reading("Cc1nnc(N2CCC(CN(C)C(C)C)CC2)c(C#N)c1C")
-4.73
>>> reading("CCC(C)N(C)CCNC(=O)NCc1cccc(-n2cncn2)c1 (stereo not drawn)")
-5.23
>>> reading("CCOCCC(=O)N1CCCN(Cc2csc(CC)n2)CC1")
-0.651
>>> reading("CC(c1ccc(Cl)cc1)N1CCN(CCNS(C)(=O)=O)CC1 (stereo not drawn)")
-4
>>> reading("Cc1ccn(-c2ccccc2NCc2cccnc2C)n1")
-0.328
>>> reading("OC1CCN(Cc2cc3c(cc2Br)OCCO3)CC1")
-3.08
